Tested on: giant foxtail
Assay: Test A postemergence
Format: in vivo, Setaria faberii
Settings: 125 g ai/ha, 0 to 100 scale where 0 is no effect and 100 is complete control
reported-metric: Foxtail, Giant plant response rating
Note: the reply should be a number with no unit written.

Enquiry: Report value only: Foxtail, Giant plant response rating, giant foxtail, N#Cc1cccc(Oc2ncc(Br)cn2)c1-n1cccn1 [Compound 165]
Return: 10

Enquiry: Report value only: Foxtail, Giant plant response rating, giant foxtail, N#Cc1cccc(Oc2ncc(Cl)cn2)c1-n1cc(Br)cn1 [Compound 235]
Return: 0

Enquiry: Report value only: Foxtail, Giant plant response rating, giant foxtail, CC(C)Oc1cnn(-c2c(Br)cccc2Oc2ncc(F)cn2)c1 [Compound 156]
Return: 10

Enquiry: Report value only: Foxtail, Giant plant response rating, giant foxtail, CCCc1cnc(Oc2cccc(C#N)c2-n2cc(Br)cn2)nc1 [Compound 131]
Return: 0

Enquiry: Report value only: Foxtail, Giant plant response rating, giant foxtail, N#Cc1cnc(Oc2cccc(C(F)F)c2-n2cc(Br)cn2)nc1 [Compound 175]
Return: 0

Enquiry: Report value only: Foxtail, Giant plant response rating, giant foxtail, O=Cc1cccc(Oc2ncc(Cl)cn2)c1-n1cc(C(F)(F)F)cn1 [Compound 171]
Return: 0

Enquiry: Report value only: Foxtail, Giant plant response rating, giant foxtail, O=Cc1cccc(Oc2ncc(Br)cn2)c1-n1cc(C(F)(F)F)cn1 [Compound 161]
Return: 0

Enquiry: Report value only: Foxtail, Giant plant response rating, giant foxtail, COc1cnn(-c2c(C#N)cccc2Oc2ncc(Cl)cn2)c1 [Compound 137]
Return: 70

Enquiry: Report value only: Foxtail, Giant plant response rating, giant foxtail, CCCOc1cnn(-c2c(C#N)cccc2Oc2ncc(Cl)cn2)c1 [Compound 150]
Return: 100

Enquiry: Report value only: Foxtail, Giant plant response rating, giant foxtail, N#Cc1ccc(Oc2ncc(Cl)cn2)c(-n2cc(Br)cn2)c1 [Compound 213]
Return: 10

Enquiry: Report value only: Foxtail, Giant plant response rating, giant foxtail, CCOc1cnn(-c2ccccc2Oc2ncc(Cl)cn2)c1 [Compound 187]
Return: 60

Enquiry: Report value only: Foxtail, Giant plant response rating, giant foxtail, Fc1cnc(Oc2cccc(F)c2-n2cc(OCC(F)(F)F)cn2)nc1 [Compound 126]
Return: 50

* * *

Tested on: wheat, winter
Assay: Test C postemergence
Type: in vivo, Triticum aestivum
Details: 125 g ai/ha, postemergence; visual rating, scale 0 to 100 (0 no effect, 100 complete control)
Kindly supply the reported Plant response rating, Wheat values for the records listed here.
Note: the reply should be a number with no unit written.

Enquiry: Name the recorded Plant response rating, Wheat of the molecule listed here: N#Cc1cccc(Oc2ncc(Cl)cn2)c1-n1cc(I)cn1 [Compound 204]
Return: 10

Enquiry: Name the recorded Plant response rating, Wheat of the molecule listed here: FCc1cccc(Oc2ncc(Br)cn2)c1-n1cc(C(F)(F)F)cn1 [Compound 120]
Return: 0

Enquiry: Name the recorded Plant response rating, Wheat of the molecule listed here: CCCOc1cnn(-c2c(C#N)cccc2Oc2ncc(Cl)cn2)c1 [Compound 150]
Return: 25

Enquiry: Name the recorded Plant response rating, Wheat of the molecule listed here: FC(F)(F)c1cnn(-c2c(Cl)cccc2Oc2ncc(Cl)cn2)c1 [Compound 167]
Return: 5

Enquiry: Name the recorded Plant response rating, Wheat of the molecule listed here: Cc1cnc(Oc2cccc(C#N)c2-n2cc(I)cn2)nc1 [Compound 136]
Return: 5
